# subject.of.test: Gal(a1-3)Gal(b1-4)[Fuc(a1-3)]GlcNAc
# method: glycan array binding signal (z-score within array); higher = stronger binding
# test.context: glycan notation: IUPAC condensed, linker removed
This is one part of a sample in which the strongest signals are shown more often than they occur.
Reported glycan array binding signal (z-score) values for the following binders.
readout: glycan array binding signal (z-score)

[[record]]
binder = "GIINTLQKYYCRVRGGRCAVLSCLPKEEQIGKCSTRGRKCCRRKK [Beta-Defensin 3 (Homo sapiens), P81534]"
result_value = -0.233

[[record]]
binder = "GSL-I-B4 (Griffonia simplicifolia) (protein) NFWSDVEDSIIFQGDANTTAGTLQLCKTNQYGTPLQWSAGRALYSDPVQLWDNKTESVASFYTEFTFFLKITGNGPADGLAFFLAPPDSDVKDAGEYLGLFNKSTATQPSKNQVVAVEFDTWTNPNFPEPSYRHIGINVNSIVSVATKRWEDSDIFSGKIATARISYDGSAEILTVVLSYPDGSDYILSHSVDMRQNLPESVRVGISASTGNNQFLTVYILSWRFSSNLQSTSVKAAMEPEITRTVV"
result_value = 6.03


Values compiled from the supplement of paper PMC8728848.
